sequences and their reported self-aminoacylation
Tested on: biotinyl-Val-oxazolone
assay summary: self-aminoacylation, catalytic enhancement (BVO) (fold over background); higher = more active; k-Seq, kA / k0A0; sequences stand for … in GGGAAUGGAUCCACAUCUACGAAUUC…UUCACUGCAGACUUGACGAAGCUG
Variants at the floor of the assay were thinned out.
readout name: self-aminoacylation

1. AUUAUCCUGGUCAUCGCGUGA [Fam2.1 aminoacylation ribozyme variant]; 8.29
2. AAGUUUGCUGAUAGUCGCUAG [Fam3.1 aminoacylation ribozyme variant]; 1.26
3. UUUACCCUGGUCUUCGAGUGA [Fam2.1 aminoacylation ribozyme variant]; 2.79
4. AUUACCCUGGUCCUCGGGUGA [Fam2.1 aminoacylation ribozyme variant]; 6.25
5. AUCCACCUAGGUCAUCGGGUU [Fam2.2 aminoacylation ribozyme variant]; 7.64
6. AAGUUUGGUAACAGUCGCAAG [Fam3.1 aminoacylation ribozyme variant]; 0.987
7. UUUACCCUGGUCAUCGUGUGA [Fam2.1 aminoacylation ribozyme variant]; 2.06
8. AUUCACCUAGGUCAUCGAGGG [Fam2.2 aminoacylation ribozyme variant]; 1.43
9. CCACACCGCAAGCAAUCGGUC [Fam1B.1 aminoacylation ribozyme variant]; 1.13
10. AUAACCCUGGUCAUCCAGUGA [Fam2.1 aminoacylation ribozyme variant]; 3.21
11. AUGCACCUAGGUCAUCGCGUG [Fam2.2 aminoacylation ribozyme variant]; 5.84
12. AUUCCCCUAGGUCAUCGGCUG [Fam2.2 aminoacylation ribozyme variant]; 7.07
13. AAGUUUGCUUAUAGUCGCAAU [Fam3.1 aminoacylation ribozyme variant]; 1.22
14. AGUCACCUAGGUUAUCGGGUG [Fam2.2 aminoacylation ribozyme variant]; 4.56
15. CCACACUUCAAGGAAGCGGUC [Fam1B.1 aminoacylation ribozyme variant]; 1.28
16. AAGGUUGCUAAUCGUCGCAAG [Fam3.1 aminoacylation ribozyme variant]; 1.2
17. CAACUUCGAACAAUCGGUCUG [Fam1A.1 aminoacylation ribozyme variant]; 1.15
18. CUACUCCAAACAAUCGGUCUC [Fam1A.1 aminoacylation ribozyme variant]; 0.723

###

System: biotinyl-Ile-oxazolone
assay summary: self-aminoacylation, catalytic enhancement (BIO) (fold over background); higher = more active; k-Seq, kA / k0A0; sequences stand for … in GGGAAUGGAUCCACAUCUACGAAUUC…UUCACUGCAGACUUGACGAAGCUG
Fewer inactive variants are shown than the library holds.
self-aminoacylation vs 0.9: at or above is Y, below is N.

1. AUUAGCCUGGUCAUCGAGUGU [Fam2.1 aminoacylation ribozyme variant]; Y
2. CCAUUUCAAACAAUCGGUCUG [Fam1A.1 aminoacylation ribozyme variant]; Y
3. AUUCAGCUAGGUCCUCGGGUG [Fam2.2 aminoacylation ribozyme variant]; Y
4. CCACACUUCAAGCAAUCCGCC [Fam1B.1 aminoacylation ribozyme variant]; N
5. CCACACUUCAAGGAAUCUGUC [Fam1B.1 aminoacylation ribozyme variant]; N
6. AUUCACCUAGGCCCUCGGGUG [Fam2.2 aminoacylation ribozyme variant]; Y
7. GUUACCCUGGUCAUCGAGUCA [Fam2.1 aminoacylation ribozyme variant]; Y
8. CUACUUCUAACAAUCGGUCCG [Fam1A.1 aminoacylation ribozyme variant]; N
9. AUUACGCUGGUCAUCCAGUGA [Fam2.1 aminoacylation ribozyme variant]; Y

###

sequences and their reported self-aminoacylation
System: biotinyl-Trp-oxazolone
assay summary: self-aminoacylation, catalytic enhancement (BWO) (fold over background); higher = more active; k-Seq, kA / k0A0; sequences stand for … in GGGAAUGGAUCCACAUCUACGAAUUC…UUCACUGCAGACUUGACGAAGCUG
Variants at the floor of the assay were thinned out.
readout name: self-aminoacylation

1. CUACUUCACACAAUCGAUCUG [Fam1A.1 aminoacylation ribozyme variant]; 0.691
2. CCACACUUCACGAAAUCGGUC [Fam1B.1 aminoacylation ribozyme variant]; 1.02
3. AUUCACCGAGGUAAUCGGGUG [Fam2.2 aminoacylation ribozyme variant]; 8.26
4. AUUCACCUAAGUCAUCGGGCG [Fam2.2 aminoacylation ribozyme variant]; 2.51

###

System: biotinyl-Leu-oxazolone
assay summary: self-aminoacylation, catalytic enhancement (BLO) (fold over background); higher = more active; k-Seq, kA / k0A0; sequences stand for … in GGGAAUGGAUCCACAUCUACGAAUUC…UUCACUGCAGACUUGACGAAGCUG
Fewer inactive variants are shown than the library holds.
readout name: self-aminoacylation

1. AUUCACCUAGGUCACCGCGUG [Fam2.2 aminoacylation ribozyme variant]; 18.1
2. AUUCACCUGGGUCAUCGCGUG [Fam2.2 aminoacylation ribozyme variant]; 17.1
3. CUACUUCAAACAAACGGUCGG [Fam1A.1 aminoacylation ribozyme variant]; 0.809
4. CUACCUCAAACAAUCGGCCUG [Fam1A.1 aminoacylation ribozyme variant]; 2.11

###

System: biotinyl-Phe-oxazolone
assay summary: self-aminoacylation, catalytic enhancement (BFO) (fold over background); higher = more active; k-Seq, kA / k0A0; sequences stand for … in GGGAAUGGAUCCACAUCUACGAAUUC…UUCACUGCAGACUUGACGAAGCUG
Variants at the floor of the assay were thinned out.
sequences and their reported self-aminoacylation
readout name: self-aminoacylation

1) AUUCACGUAGGUCAACGGGUG [Fam2.2 aminoacylation ribozyme variant]; 21.1
2) AUUACCCUGGUCAUCAAGUGA [Fam2.1 aminoacylation ribozyme variant]; 4.11
3) AUUAGCCUGGUCAUCGAGUGU [Fam2.1 aminoacylation ribozyme variant]; 3.87
4) CCACACCUCAAGCAAUCGGUU [Fam1B.1 aminoacylation ribozyme variant]; 0.882
5) AUACUUCAAACAAUCGUUCUG [Fam1A.1 aminoacylation ribozyme variant]; 1.23

###

Tested on: biotinyl-Leu-oxazolone
assay summary: self-aminoacylation, catalytic enhancement (BLO) (fold over background); higher = more active; k-Seq, kA / k0A0; sequences stand for … in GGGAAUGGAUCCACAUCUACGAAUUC…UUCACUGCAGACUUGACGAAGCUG
This sample holds only a part of the variants without activity.
readout name: self-aminoacylation

1. CCGCACUUCCAGCAAUCGGUC [Fam1B.1 aminoacylation ribozyme variant]; 1.04
2. GUUACCCUGGUCAUCGAGUGC [Fam2.1 aminoacylation ribozyme variant]; 13
3. AUCCACCCAGGUCAUCGGGUG [Fam2.2 aminoacylation ribozyme variant]; 7.15
4. AUUGCCCUGGUCAUCGAGGGA [Fam2.1 aminoacylation ribozyme variant]; 3.97
5. AGUACCAUGGUCAUCGAGUGA [Fam2.1 aminoacylation ribozyme variant]; 7.11
6. AAGUUUGCGUAUAGUCGCAAG [Fam3.1 aminoacylation ribozyme variant]; 0.753
7. AUUCACCUAGAUCAUGGGGUG [Fam2.2 aminoacylation ribozyme variant]; 6.83
8. CGACUUCAAACCAUCGGUCUG [Fam1A.1 aminoacylation ribozyme variant]; 0.811
9. CCACACUAUAAGCAAUCGGUC [Fam1B.1 aminoacylation ribozyme variant]; 0.59
10. AAGCUUGCCAAUAGUCGCAAG [Fam3.1 aminoacylation ribozyme variant]; 2.23
11. AUGCACUUAGGUCAUCGGGUG [Fam2.2 aminoacylation ribozyme variant]; 10.6
12. GCACACUUCAAGCAAUCGGUG [Fam1B.1 aminoacylation ribozyme variant]; 10.3
13. CUACACUUCAAGCACUCGGUC [Fam1B.1 aminoacylation ribozyme variant]; 0.757
14. UCACAGUUCAAGCAAUCGGUC [Fam1B.1 aminoacylation ribozyme variant]; 1.16
15. CUACUUCAAAGAAGCGGUCUG [Fam1A.1 aminoacylation ribozyme variant]; 0.82
16. AUGUUUGGUAAUAGUCGCAAG [Fam3.1 aminoacylation ribozyme variant]; 1.84
17. AUUACCCUGAUCCUCGAGUGA [Fam2.1 aminoacylation ribozyme variant]; 3.73
18. CCACACCUCAAGGAAUCGGUC [Fam1B.1 aminoacylation ribozyme variant]; 1.34
19. AUUCACCAAGGUCAUCGGUUG [Fam2.2 aminoacylation ribozyme variant]; 1.72
20. AAGUUUGCUAAUAGUCUUAAG [Fam3.1 aminoacylation ribozyme variant]; 1.11
21. AUUCACCUAAGUCAUCGGGAG [Fam2.2 aminoacylation ribozyme variant]; 1.81
22. AUUCACCUAGGUCAUCUGCUG [Fam2.2 aminoacylation ribozyme variant]; 0.964
23. AUACACCUAGGUCAUGGGGUG [Fam2.2 aminoacylation ribozyme variant]; 3.49
24. AUUCCCCUAGGUAAUCGGGUG [Fam2.2 aminoacylation ribozyme variant]; 16.3
25. AUUACCCUGGACAUCGAGUGC [Fam2.1 aminoacylation ribozyme variant]; 0.793
26. AUUAACCCAGGUCAUCGGGUG [Fam2.2 aminoacylation ribozyme variant]; 8.17
27. AAGUUCGCUAAUAGUCGCUAG [Fam3.1 aminoacylation ribozyme variant]; 1.47
28. GUUCACCUCGGUCAUCGGGUG [Fam2.2 aminoacylation ribozyme variant]; 4.52
29. CGACUUCAUACAAUCGGUCUG [Fam1A.1 aminoacylation ribozyme variant]; 0.738
30. CUACACUUAAAGCAAUCGGUC [Fam1B.1 aminoacylation ribozyme variant]; 0.696
31. GUUACCCUGCUCAUCGAGUGA [Fam2.1 aminoacylation ribozyme variant]; 2.23
32. AUUACCCUGGACAUUGAGUGA [Fam2.1 aminoacylation ribozyme variant]; 10.4
33. CCACACUUCGAGCAAUCGGUA [Fam1B.1 aminoacylation ribozyme variant]; 0.849
34. AAUUUUGCUAAUAGUAGCAAG [Fam3.1 aminoacylation ribozyme variant]; 1.75
35. CGACACUUCAAGAAAUCGGUC [Fam1B.1 aminoacylation ribozyme variant]; 1.24
